# inhibition values compiled below
test system: rhLYPLA1; test: LYPLA1 and LYPLA2 inhibitors, biochemical, gel-based ABPP, fluorescence, recombinant and endogenous enzyme (AID 493105); details: fluorescent probe labeling, soluble fraction, at 20 µM, hits give high values
Provide the reading as a plain figure in %.

For orientation, consider the following solved cases.
1. COc1ccc(S(=O)(=O)Nc2ccc(Cc3ccncc3)cc2)cc1C :: 12
2. Cc1ccc(N2CCN(C3=NC(=O)/C(=C\c4cccs4)S3)CC2)cc1 :: 0
3. COc1ccccc1-c1csc(-n2ncc(C#N)c2N)n1 :: 0
4. O=C(Nc1ccc2oc(-c3cccnc3)nc2c1)c1ccc2c(c1)OCCO2 :: 0
5. COc1ccc(/C=C2/Sc3ccc(C(=O)NCCCN4CCOCC4)cc3NC2=O)cc1OC :: 0
6. O=C(c1ccc(-c2ccccc2)c(F)c1)C1CCCN(C(=O)c2cncs2)C1 (stereo not drawn) :: 0
7. O=C(NCCNC(=O)c1cc(OCC(F)(F)F)ccc1OCC(F)(F)F)Nc1cccc(C(F)(F)F)c1 :: 57
8. COc1ccc(OC)c(NC(=O)C2CCC(CNc3c(N4CCC(C)CC4)c(=O)c3=O)CC2)c1 (stereo not drawn) :: 27

INPUT: Field: inhibition (rhLYPLA1). Entry: Cc1c(Br)c([N+](=O)[O-])nn1CC(=O)Nc1ccc(Cc2ccncc2)cc1
OUTPUT: 0

INPUT: Next up: O=C(c1ccc(S(=O)(=O)N2CCCCC2)cc1)N1CCN(CCN2C(=O)c3cccc4cccc(c34)C2=O)CC1
OUTPUT: 11

INPUT: Then what about the molecule O=C(COc1ccc(Br)cc1)N1CCN(c2ccc([N+](=O)[O-])c(N3CCCCC3)c2)CC1 ?
OUTPUT: 45

INPUT: What do you get for CCC(=O)N1CCN(c2ccc(NC(=S)NC(=O)c3cccc([N+](=O)[O-])c3)cc2)CC1 ?
OUTPUT: 0

* * *

test system: rhLYPLA2; experiment: LYPLA1 and LYPLA2 inhibitors, biochemical, gel-based ABPP, fluorescence, recombinant and endogenous enzyme (AID 493105); conditions: fluorescent probe labeling, membrane fraction, at 20 µM
The source made the active and inactive calls. How the calls were made is not given here.
Hi! Could you answer with just one of these? label 1 for active, label 0 for inactive

1) CC(=O)c1ccc(N2CCN(C(=O)c3ccc(C(=O)c4ccccc4)cc3)CC2)cc1 :: label 0
2) CCOc1cc(CN2CCCC(C(=O)c3cccc(C(F)(F)F)c3)C2)ccc1O (stereo not given) :: label 0
3) Clc1ccc(C(c2ccc(Cl)cc2)n2cc[n+](CC(OCc3ccc(Cl)cc3Cl)c3ccc(Cl)cc3Cl)c2)cc1 (stereo not given) :: label 0
4) COc1ccc(N2CCN(C(=O)CCCCCn3c(=O)[nH]c4ccsc4c3=O)CC2)cc1 :: label 0

INPUT: # lookup: test call for N#Cc1c(NC(=O)CN2CCN(C(=O)c3ccco3)CC2)sc2c1CCCCC2
OUTPUT: label 0

INPUT: Lookup COc1ccccc1-n1cc(C(=O)NCC(=O)N2CCN(Cc3ccccc3)CC2)c2ccccc2c1=O
OUTPUT: label 1

INPUT: Further, for COc1cc(/C=N/N2CCN(Cc3ccc(Cl)cc3)CC2)cc(Br)c1O ?
OUTPUT: label 0

INPUT: Would you mind doing Cc1cc(OCc2cc(C(=O)N3CCC(Oc4cccnc4)CC3)no2)cc(C)c1Cl as well?
OUTPUT: label 0

INPUT: And then N#Cc1ccccc1OCCCN1CCC(Cc2ccccc2)CC1 , what is it?
OUTPUT: label 0

INPUT: Next record, please: O=C(CCN1CCN(c2ccc([N+](=O)[O-])cc2)CC1)c1ccc(Cl)cc1
OUTPUT: label 0

INPUT: Same question for O=C(NCCNC(=O)c1cc(OCC(F)(F)F)ccc1OCC(F)(F)F)Nc1cccc(C(F)(F)F)c1 please.
OUTPUT: label 0

INPUT: Try this compound too: CC(=O)N1CCC2(CC1)C/C(=N\NC(=S)Nc1ccc(C)cc1)c1cc(O)ccc1O2
OUTPUT: label 0

INPUT: Next: COc1ccc2c(c1)C(=O)[C@H](O)[C@@H](c1ccc(OC)c(Br)c1)O2
OUTPUT: label 1

INPUT: Ok, now O=C(CCCc1ccccc1)N1CCN(c2ccc([N+](=O)[O-])cc2)CC1
OUTPUT: label 0

INPUT: Next compound: Cc1c(Br)c([N+](=O)[O-])nn1CC(=O)Nc1ccc(Cc2ccncc2)cc1
OUTPUT: label 0

INPUT: Let us now turn to CCC(=C/c1sc2ccc3ccccc3c2[n+]1C)/C=C1\Sc2ccc3ccccc3c2N1C
OUTPUT: label 0

INPUT: Same question for O=C(CCCCn1c(=O)[nH]c2ccccc2c1=O)N1CCN(c2cccc(C(F)(F)F)c2)CC1 please.
OUTPUT: label 0

INPUT: Another compound to check: O=C(CN1CCN(c2ccccn2)CC1)Nc1cc(C(F)(F)F)ccc1Cl
OUTPUT: label 0

INPUT: How about this compound: Cc1ccc([N+](=O)[O-])c(OCCCN2CCC(Cc3ccccc3)CC2)c1
OUTPUT: label 0

INPUT: Repeat with O=C(/C=C/c1ccccc1)N1CCN(CCN2C(=O)c3cccc4cccc(c34)C2=O)CC1
OUTPUT: label 0
